Reported values of fluorescence for individual entries
Biological target: Diaphorase
Test: peptide array, 1 uM labeled diaphorase, with FAD
Quick one: just the number, no unit, thanks!

Previously resolved entries follow.
[[record]]
binder = "AFYGLELGGSG"
endpointvalue = 4180

[[record]]
binder = "RYAYFQHLGGSG"
endpointvalue = 4970

[[record]]
binder = "RFGQNLPLGGSG"
endpointvalue = 2100

[[record]]
binder = "YRFAQYKGQKDGSG"
endpointvalue = 1600

[[record]]
binder = "YVWGLELSGGSG"
endpointvalue = 4690


Give the reported value of fluorescence for this record: VLSLNQVYSEGSG
2710

Give the reported value of fluorescence for this record: YRNAAWFSGGSG
2930

Give the reported value of fluorescence for this record: QLLQLLFGGSG
6310
